Tested on: A549 cells
Test: In-vitro cytotoxicity, crystal violet dye assay
Type: cell-based, human
Conditions: A549 cells, 72 h
measured endpoint: pIC50
Give bare numbers, as −log10 of the molar value.

Prompt: Report measured pIC50; entry is c1ccc(-c2ccc(C(c3c[nH]c4ccccc34)c3c[nH]c4ccccc34)cc2)cc1 [DIM-P, DIM-C-pPhC6H5]
Completion: 5.17
